Biological target: HDAC (Mouse Liver Extract)
Assay: Histone Deacetylase (HDAC) Inhibition Assay using Boc-Lys (Ac)-AMC Substrate
Conditions: Mouse liver enzyme, 30 minutes at 37° C.
pIC50: −log10 of the molar value.
Metric: pIC50

These recorded examples may help you get a feel for the data.
Query: Return reported pIC50; argument: O=C(/C=C/c1ccc(CNCC23CC4CC(CC(O)(C4)C2)C3)cc1)NO [Example 11]
Response: 8.04

Query: Also O=C(/C=C/c1ccc(CNC23CC4CC(CC(C4)C2)C3)cc1)NO [Example 1] , if possible.
Response: 7.15

Query: And the next one, O=C(/C=C/c1ccc(CNC2C3CC4CC2CC(O)(C4)C3)cc1)NO (stereo not drawn) [Example 16] ?
Response: 6.80

a. O=C(/C=C/c1ccc(CNC(=O)CC2C3CC4CC(C3)CC2C4)cc1)NO (stereo not drawn) [Example 20]
b. O=C(/C=C/c1ccc(CNC(=O)C23CC4CC(CC(C4)C2)C3)cc1)NO [Example 25]
Query: Two entries are listed, a and b . Which one carries the higher pIC50? # answer = label of selected item
Response: a

###

Target: HDAC (Mouse Liver Extract)
Assay: Histone Deacetylase (HDAC) Inhibition Assay using Boc-Lys (Ac)-AMC Substrate
Assay type: biochemical
Details: Mouse liver enzyme, 30 minutes at 37° C.
pIC50: −log10 of the molar value.
Metric: pIC50

Example compounds with recorded pIC50:
Query: Please report the recorded pIC50 for Nc1ccccc1NC(=O)/C=C/c1ccc(CNC23CC4CC(CC(C4)C2)C3)cc1 [Example 12] .
Response: 5.37

Query: Next up: O=C(C=C1C2CC3CC(C2)CC1C3)NCc1ccc(/C=C/C(=O)NO)cc1 [Example 21]
Response: 7.37

Query: Okay, and O=C(/C=C/c1ccc(CNC23CC4CC(CC(Cl)(C4)C2)C3)cc1)NO [Example 7] ?
Response: 7.40

P. O=C(/C=C/c1ccc(CNCC(=O)NC23CC4CC(CC(C4)C2)C3)cc1)NO [Example 28]
Q. O=C(/C=C/c1ccc(CNC23CC4CC(C2)CC(c2ccccc2)(C4)C3)cc1)NO [Example 8]
Query: Recorded pIC50 values differ for P and Q ; which one is higher? Mark your selection by writing its label.
Response: P

###

Biological target: HDAC (Mouse Liver Extract)
Experiment: Histone Deacetylase (HDAC) Inhibition Assay using Boc-Lys (Ac)-AMC Substrate
Format: biochemical
Conditions: Mouse liver enzyme, 30 minutes at 37° C.
pIC50: −log10 of the molar value.
Metric: pIC50

Below are worked cases with known answers.
Query: What measured pIC50 goes with O=C(/C=C/c1ccc(CNC23CC4CC(CC(O)(C4)C2)C3)cc1)NO [Example 2] ?
Response: 6.60

Query: Now try O=C(/C=C/c1ccc(CN2CC3CC4CC(C3)CC2C4)cc1)NO [Example 6] .
Response: 6.96

Query: Input Nc1ccccc1NC(=O)/C=C/c1ccc(CNC23CC4CC(CC(O)(C4)C2)C3)cc1 [Example 13]
Response: 5.27

Query: Request: O=C(/C=C/c1ccc(CNC2C3CC4CC(C3)CC2C4)cc1)NO (centres unmarked) [Example 15]
Response: 7.22

Query: Same again, this time with O=C(/C=C/c1ccc(CNCC23CC4CC(CC2C4)C3)cc1)NO [Example 32]
Response: 9.41

a. O=C(C=Cc1ccc(CNCCC2C3CC4CC(C3)CC2C4)cc1)NO (centres unmarked) [Example 17]
b. CC12CC3CC(C)(C1)CC(NCc1ccc(/C=C/C(=O)NO)cc1)(C3)C2 [Example 5]
Query: Between item a and item b , which reported pIC50 is smaller? # answer = label of selected item
Response: b
